Where do the numbers come from? From BigSolDB 2.1.

# experimental parameters: in transcutol, 318.15 K
reported property: solubility (mole fraction)
Numbers only.

[in] What solubility (mole fraction) value was documented for this molecule, Cc1ncc([N+](=O)[O-])n1CCO ?
[out] 0.0283

----------
# experimental parameters: in transcutol, 323.15 K
reported property: solubility (mole fraction)
One number for each entry.

[in] Name the recorded solubility (mole fraction) for Cc1ncc([N+](=O)[O-])n1CCO .
[out] 0.0303

----------
# experimental parameters: in water, 328.15 K
reported property: solubility (mole fraction)
One number for each entry.

[in] Entry Cc1ncc([N+](=O)[O-])n1CCO has what solubility (mole fraction)?
[out] 0.0017

----------
# experimental parameters: in transcutol, 313.15 K
reported property: solubility (mole fraction)
Give bare numbers.

[in] Consider the compound Cc1ncc([N+](=O)[O-])n1CCO and give its measured solubility (mole fraction).
[out] 0.0263

----------
# experimental parameters: in water, 313.15 K
reported property: solubility (mole fraction)
Numbers only.

[in] Please give the measured solubility (mole fraction) for this compound: Cc1ncc([N+](=O)[O-])n1CCO
[out] 0.00137

----------
# experimental parameters: in transcutol, 308.15 K
reported property: solubility (mole fraction)

[in] Reported solubility (mole fraction) for Cc1ncc([N+](=O)[O-])n1CCO : what is it?
[out] 0.0244

----------
# experimental parameters: in water, 318.15 K
reported property: solubility (mole fraction)
Give bare numbers.

[in] Bench note: what solubility (mole fraction) did Cc1ncc([N+](=O)[O-])n1CCO show?
[out] 0.00147

----------
# experimental parameters: in water, 308.15 K
reported property: solubility (mole fraction)
Answers are plain numbers.

[in] Reported solubility (mole fraction) for Cc1ncc([N+](=O)[O-])n1CCO : what is it?
[out] 0.00128

----------
# experimental parameters: in transcutol, 298.15 K
reported property: solubility (mole fraction)

[in] Param item = Cc1ncc([N+](=O)[O-])n1CCO ; retrieve measured solubility (mole fraction).
[out] 0.0207

----------
# experimental parameters: in transcutol, 333.15 K
reported property: solubility (mole fraction)
Give bare numbers.

[in] Given the compound Cc1ncc([N+](=O)[O-])n1CCO , what is its reported solubility (mole fraction)?
[out] 0.0361

----------
# experimental parameters: in water, 323.15 K
reported property: solubility (mole fraction)

[in] Item Cc1ncc([N+](=O)[O-])n1CCO has what recorded solubility (mole fraction)?
[out] 0.00159

----------
# experimental parameters: in water, 298.15 K
reported property: solubility (mole fraction)
One number for each entry.

[in] Returns the measured solubility (mole fraction) for the input molecule. Input: Cc1ncc([N+](=O)[O-])n1CCO
[out] 0.00111
